Below is a list of entries, each paired with its recorded pIC50 value.
- measured.target: Kras and SOS1 (biotin-tagged human Kras loaded with GDP, His-tagged human SOS1) (Homo sapiens, UniProt P01116, G12D)
- Construct: made in house; host or cells: E. coli (stated for Kras only)
- Sequence (P01116 1-188 isoform P01116-2 G12D): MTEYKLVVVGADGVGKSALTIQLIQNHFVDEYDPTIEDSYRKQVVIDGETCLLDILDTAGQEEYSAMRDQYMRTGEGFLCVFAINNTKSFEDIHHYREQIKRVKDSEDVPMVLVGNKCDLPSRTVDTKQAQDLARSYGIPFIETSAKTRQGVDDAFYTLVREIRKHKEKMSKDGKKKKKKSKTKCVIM
- measurement.notes: Protein-protein interaction inhibition between Kras and SOS1 (KrasGl2D-SOS PPI) using AlphaScreen
- Format: binding
- condition.description: AlphaScreen; biotin-tagged human Kras loaded with GDP, His-tagged human SOS1; read-out: KRAS G12D-SOS PPI IC50
pIC50: −log10 of the molar value. Positions of bridges follow the written chain, without caps; N, C: chain ends. Non-standard residues stand in square brackets, D forms with d. Residues, ends and D or L forms follow the SMILES beside them. *: point of attachment. hPhe(3-Cl-4-CF3) = N[C@@H](CCc1ccc(C(F)(F)F)c(Cl)c1)C(=O)O; NMePhe(4-Me) = CN[C@@H](Cc1ccc(C)cc1)C(=O)O; NMeGly(cPent) = CN[C@H](C(=O)O)C1CCCC1; Phe(2-Cl) = N[C@@H](Cc1ccccc1Cl)C(=O)O; Phe(3-I) = N[C@@H](Cc1cccc(I)c1)C(=O)O; NMeCha = CN[C@@H](CC1CCCCC1)C(=O)O; NMeD = CN[C@@H](CC(=O)O)C(=O)O; NMeL = CN[C@@H](CC(C)C)C(=O)O; NMeAib = CNC(C)(C)C(=O)O; Piperidide = C1CCN(*)CC1; Ac5c = NC1(C(=O)O)CCCC1; Sar = CNCC(=O)O
property.name: pIC50

molecule: CC[C@H](C)[C@@H]1NC(=O)[C@H](CC(C)C)N(C)C(=O)C[C@@H](C(=O)N2CCCCC2)N(C)C(=O)[C@H](CC(C)C)NC(=O)C(C)(C)N(C)C(=O)[C@H](Cc2ccccc2Cl)NC(=O)[C@H](Cc2cccc(I)c2)NC(=O)CN(C)C(=O)[C@H](Cc2ccc(C)cc2)N(C)C(=O)CN(C)C(=O)CN(C)C1=O [Compound 706] ([NMeL]I[Sar][Sar][NMePhe(4-Me)][Sar][Phe(3-I)][Phe(2-Cl)][NMeAib]L[NMeD]-Piperidide; lactam N-11)
observed.value: 7.18

molecule: CC[C@H](C)[C@@H]1NC(=O)[C@H](CC(C)C)N(C)C(=O)C[C@@H](C(=O)N(C)C)N(C)C(=O)[C@H](C2CCCC2)N(C)C(=O)C2(CCCC2)NC(=O)[C@@H]2CCCN2C(=O)[C@H](CCc2ccc(C(F)(F)F)c(Cl)c2)NC(=O)CN(C)C(=O)[C@H](CC2CCCCC2)N(C)C(=O)CN(C)C(=O)CN(C)C1=O [Compound 1659] ([NMeL]I[Sar][Sar][NMeCha][Sar][hPhe(3-Cl-4-CF3)]P[Ac5c][NMeGly(cPent)][NMeD]-NMe2; lactam N-11)
observed.value: 9.42
